- measurement-target: histidine tagged recombinant human full-length Bruton Agammaglobulinemia Tyrosine Kinase (Btk) (Homo sapiens, UniProt Q06187)
- Construct: histidine tagged recombinant human full-length Bruton Agammaglobulinemia Tyrosine Kinase (Btk); His tag
- Sequence (Q06187 whole entry): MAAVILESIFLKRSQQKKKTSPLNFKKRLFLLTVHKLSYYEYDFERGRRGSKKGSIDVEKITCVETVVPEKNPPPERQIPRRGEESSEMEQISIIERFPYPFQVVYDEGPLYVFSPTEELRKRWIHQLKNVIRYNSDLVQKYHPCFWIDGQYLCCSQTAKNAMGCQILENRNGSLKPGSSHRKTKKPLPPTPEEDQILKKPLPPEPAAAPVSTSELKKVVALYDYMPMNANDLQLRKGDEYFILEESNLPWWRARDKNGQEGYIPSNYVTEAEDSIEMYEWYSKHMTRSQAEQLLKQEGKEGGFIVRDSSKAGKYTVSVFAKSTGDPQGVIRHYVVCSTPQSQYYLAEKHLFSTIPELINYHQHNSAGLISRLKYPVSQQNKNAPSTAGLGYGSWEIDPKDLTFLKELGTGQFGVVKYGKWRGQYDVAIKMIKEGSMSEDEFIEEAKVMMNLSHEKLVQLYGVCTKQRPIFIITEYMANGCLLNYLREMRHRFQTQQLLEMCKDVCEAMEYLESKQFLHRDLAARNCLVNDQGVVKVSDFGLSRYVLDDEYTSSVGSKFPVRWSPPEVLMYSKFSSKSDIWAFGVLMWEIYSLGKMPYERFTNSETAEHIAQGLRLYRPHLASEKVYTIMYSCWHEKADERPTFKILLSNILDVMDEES
- measurement-protocol: Btk kinase inhibition assay, Method A (fluorescence polarization, KinEASE FP Fluorescein Green)
- Format: biochemical
- test-parameters: 10 μM ATP, 250 μM substrate, 60 minutes, Ki by Cheng-Prusoff from IC50, read-out: Inhibition of Btk, EC50 (nM) (legend: Ki)
measured-attribute: Ki

Exercise: # Ki lookup, item Cc1ncc(COc2cc(F)cc(Oc3ccc(-c4cn(C5CCOCC5)c5ncnc(N)c45)cc3)c2)s1 [Compound 5]
Key: < 100 nM

Exercise: # Ki lookup, item CC(C)n1cc(-c2ccc(Oc3cc(F)cc(OCc4ccccc4)c3)cc2)c2c(N)ncnc21 [Compound 9]
Key: < 100 nM

Exercise: # Ki lookup, item Cc1ncc(COc2cc(F)cc(Oc3ccc(-c4cn(C[C@@H]5CCCN5)c5ncnc(N)c45)cc3)c2)cn1 [Compound 8]
Key: < 100 nM
